Molecular target: hDGAT-1 (HuTu 80) (Homo sapiens, UniProt O75907)
Construct: microsomal protein isolated from human duodenal adenocarcinoma (‘Hutu 80’); endogenous in cells; host or cells: HuTu 80 human duodenal adenocarcinoma cells (microsomes)
Sequence (O75907 1-488): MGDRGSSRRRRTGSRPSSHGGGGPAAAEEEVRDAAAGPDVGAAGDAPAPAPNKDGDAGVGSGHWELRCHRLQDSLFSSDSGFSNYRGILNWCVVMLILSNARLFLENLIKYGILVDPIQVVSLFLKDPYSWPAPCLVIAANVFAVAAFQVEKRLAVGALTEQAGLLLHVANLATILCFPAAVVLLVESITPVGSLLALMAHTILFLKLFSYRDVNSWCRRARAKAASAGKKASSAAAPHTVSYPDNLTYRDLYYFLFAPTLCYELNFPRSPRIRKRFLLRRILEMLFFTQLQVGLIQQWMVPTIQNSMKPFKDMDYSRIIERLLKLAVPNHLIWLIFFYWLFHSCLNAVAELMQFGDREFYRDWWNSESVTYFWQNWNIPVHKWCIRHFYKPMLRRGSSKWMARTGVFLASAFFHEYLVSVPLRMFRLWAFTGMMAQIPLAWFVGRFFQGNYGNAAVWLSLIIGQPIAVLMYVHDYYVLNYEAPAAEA
Assay: DGAT enzyme inhibition test, microsomal protein from human duodenal adenocarcinoma (Hutu 80)
Format: biochemical
Conditions: microsomal protein from HuTu 80
Excerpt: To investigate inhibitory effect of the compounds of Examples 1-33 against DGAT enzyme activity, DGAT enzyme inhibition and DGAT2 selectivity were investigated using zymogen including: 2) DGAT enzyme derived from human duodenal adenocarcinoma (‘Hutu 80’), and […]
VALUE KIND: IC50 (µM)

In [3]: df
Out[3]:
                            smiles_notation                        measurement_target  readout_number
0  CC(C)N(NC(=O)c1cccc(OCC(N)=O)c1)C(=O)/C=C/c1cn(C(=O)OC(C)(C)C)c2ccccc12  hDGAT-1 (HuTu 80) (Homo sapiens, UniProt O75907)            73.3

1 = COC(=O)COc1cccc(C(=O)NN(C(=O)/C=C/c2cn(C(=O)OC(C)(C)C)c3ccccc23)C(C)C)c1
2 = COc1ccc(C(=O)NN(C(=O)/C=C/c2cn(C(=O)OC(C)(C)C)c3ccccc23)C(C)C)cc1
Larger number for IC50: 1 , or 2 ? Answer format: the label of the selected item.
2
